Tested on: MS2 coat protein
Assay: apparent KD of MS2 coat protein; higher = weaker reporter binding
Conditions: Eterna round: R107; input ligand: arginine 13.2 mM
Short version: apparent KD of MS2 coat protein at least 20 nM is YES, less is NO.

{"Construct Sequence": "AGUGGUGCAACUGAUACCAGAUUUAUACGAGACAUGAGGAUCACCCAUGUCGAAAGACAAAUCCCUUGGCAGCAGACACGAUCCC [theeternabot_sameState_MS2_Theo_B_25]", "Assigned Class": "NO"}
{"Construct Sequence": "GUAAUGAUAAGAAGGAGCGUCGAAAAUGGGUAAACAUGAGGAUCACCCAUGUAAAGGGAACGACAGGUAGGUCGCUUAUUAUUAC [AstromonsSSArgB#21]", "Assigned Class": "YES"}
{"Construct Sequence": "UGACAUUGCUCAGAUACCAGACGUGAGCAUCAGCCAUGUGCCAACAAGUACAAAAUAAAUGUCCCUUGGCAGCUGAGCAAUGUCU [TheoBX 22 #MS2Left #AlternativeMS2 #Theo22]", "Assigned Class": "NO"}
{"Construct Sequence": "UGACAUUGCUCAGAUACCAGACGUGAGGAUCACCCACGUGCCAACAAGUACAAAAUAAAUGUCCCUUGGCAGCUGAGCAAUGUCU [TheoBX 26 #MS2Left #AlternativeMS2 #Theo22]", "Assigned Class": "NO"}
{"Construct Sequence": "CGAGUUCGCUGAUGGGCUACGUCAGGUGAUACCAGCCACUCCCGCGGCCCUUGGCAGCACAUGAGGAUCACCCAUGUAGAGCUUG [Esinve]", "Assigned Class": "NO"}
